system: LPS induced IL-6 secretion from whole blood; assay: Measurement of LPS Induced IL-6 Secretion from Whole Blood; format: cell-based; conditions: IL-6 by immunoassay, LPS 200 ng/ml, 24 hours
Where a name gives a salt, the structure may show the parent alone.
outcome.measure: IC50

1. CC(=O)N1c2ccc(-c3ccc(C(=O)N4CCN(C)CC4)nc3)cc2[C@H](Nc2ccc(C#N)cn2)C[C@@H]1C = 0.0501 to 3.16 µM
2. CC(=O)N1c2ccc(-c3ccc(C(=O)N4CCOCC4)cc3)cc2[C@H](Nc2ccc(C)cn2)C[C@@H]1C [Example 56, formate] = 0.0501 to 3.16 µM
3. CC(=O)N1c2ccc(-c3ccc(C(=O)NCCN(C)C)cc3)cc2[C@H](Nc2ccc(C#N)cn2)C[C@@H]1C [Example 16, dihydrochloride] = 0.0501 to 3.16 µM
